Each entry below carries its reported IC50, in vitro cytotoxicity, MKN-45, -HGF.
target: human c-Met (HGFR), full length, on the cell surface (human, UniProt P08581 25-1390); assay: cell-based or functional assay
Sequence (P08581 25-1390 limits assumed): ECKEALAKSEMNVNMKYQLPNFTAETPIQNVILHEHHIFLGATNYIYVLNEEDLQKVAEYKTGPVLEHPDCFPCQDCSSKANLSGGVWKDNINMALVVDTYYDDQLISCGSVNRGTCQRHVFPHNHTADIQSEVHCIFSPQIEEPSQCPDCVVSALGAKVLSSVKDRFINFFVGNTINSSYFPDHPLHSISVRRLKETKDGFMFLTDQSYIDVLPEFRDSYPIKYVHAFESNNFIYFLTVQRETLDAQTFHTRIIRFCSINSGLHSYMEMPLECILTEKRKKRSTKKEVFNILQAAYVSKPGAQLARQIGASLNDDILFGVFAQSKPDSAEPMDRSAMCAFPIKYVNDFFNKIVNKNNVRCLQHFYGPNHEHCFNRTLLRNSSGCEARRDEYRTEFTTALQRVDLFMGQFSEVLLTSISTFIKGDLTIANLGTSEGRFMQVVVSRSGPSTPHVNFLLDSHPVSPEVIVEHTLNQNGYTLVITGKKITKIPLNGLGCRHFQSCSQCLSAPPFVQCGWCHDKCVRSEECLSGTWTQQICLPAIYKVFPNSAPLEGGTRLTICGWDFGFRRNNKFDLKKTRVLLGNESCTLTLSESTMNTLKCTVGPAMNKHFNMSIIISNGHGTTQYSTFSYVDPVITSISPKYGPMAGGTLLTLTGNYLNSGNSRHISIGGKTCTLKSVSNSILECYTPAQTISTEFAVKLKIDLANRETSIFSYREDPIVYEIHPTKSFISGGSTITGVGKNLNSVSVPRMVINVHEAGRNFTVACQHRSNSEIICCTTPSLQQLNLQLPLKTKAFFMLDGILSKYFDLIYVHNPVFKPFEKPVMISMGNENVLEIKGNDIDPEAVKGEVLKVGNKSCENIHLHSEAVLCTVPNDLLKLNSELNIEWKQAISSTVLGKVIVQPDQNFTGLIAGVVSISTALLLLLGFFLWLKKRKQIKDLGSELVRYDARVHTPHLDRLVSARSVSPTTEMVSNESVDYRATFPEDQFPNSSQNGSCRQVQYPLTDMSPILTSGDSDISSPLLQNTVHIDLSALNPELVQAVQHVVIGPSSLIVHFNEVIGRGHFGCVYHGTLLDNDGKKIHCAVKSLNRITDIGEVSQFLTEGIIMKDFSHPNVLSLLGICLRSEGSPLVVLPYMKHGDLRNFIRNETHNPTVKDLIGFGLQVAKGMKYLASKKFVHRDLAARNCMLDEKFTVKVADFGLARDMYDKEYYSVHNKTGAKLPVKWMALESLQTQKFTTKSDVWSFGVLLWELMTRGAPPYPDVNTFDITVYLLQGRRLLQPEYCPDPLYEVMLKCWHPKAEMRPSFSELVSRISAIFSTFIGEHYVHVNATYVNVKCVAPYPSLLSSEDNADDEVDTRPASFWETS
API: value field is a number in pM; no unit string.

Consider the worked cases shown below.
BINDER	MEASURED VALUE
ADC3 (antibody, human IgG1, kappa, V domains shown, vc-seco-DUBA linker-drug on the engineered cysteine at HC position 41 (Kabat); DAR 1.1) VH: QIQLQQSGPELVKPGASVKISCKASGYTFTDYYLNWVKQRCGQGLEWIGLIFPGNDKTEYSEKFKGKATLTVDTSSSTAYIQLSRLSSEDSAIYFCSGGDYGGFVYWGQGTLVTVSS VL: DIQMTQSPTSLSASVGETVTITCGASENIYGALNWYQRKQGKSPQLLIYGATNLADGMSSRFSGSGSGRQFSLKINSLHPDDVATYFCQNVLSSPLTFGSGTKLEIKR	770
ADC3e (antibody, human IgG1, kappa, V domains shown, vc-seco-DUBA linker-drug on the engineered cysteine at HC position 41 (Kabat); DAR 1.9) VH: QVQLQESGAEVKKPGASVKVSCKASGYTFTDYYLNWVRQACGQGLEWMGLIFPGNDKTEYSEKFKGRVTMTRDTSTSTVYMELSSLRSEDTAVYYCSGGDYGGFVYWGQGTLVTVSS VL: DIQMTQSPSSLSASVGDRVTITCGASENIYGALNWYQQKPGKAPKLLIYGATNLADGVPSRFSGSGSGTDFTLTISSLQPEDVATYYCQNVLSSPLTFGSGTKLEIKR	460
ADC3b (antibody, human IgG1, kappa, V domains shown, vc-seco-DUBA linker-drug on the engineered cysteine at HC position 41 (Kabat); DAR 1.9, Antibody-drug conjugate of mAb3b; also called mAb3b-vc-seco-DUBA) VH: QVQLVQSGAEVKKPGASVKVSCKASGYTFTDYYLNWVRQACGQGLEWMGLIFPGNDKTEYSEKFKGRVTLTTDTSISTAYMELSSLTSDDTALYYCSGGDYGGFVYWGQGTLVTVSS VL: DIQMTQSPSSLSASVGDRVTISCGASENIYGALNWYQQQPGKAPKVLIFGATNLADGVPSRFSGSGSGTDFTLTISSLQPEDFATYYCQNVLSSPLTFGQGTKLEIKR	380

stdin: Return IC50, in vitro cytotoxicity, MKN-45, -HGF (reported value) for this binder: ADC2b (antibody, human IgG1, kappa, V domains shown, vc-seco-DUBA linker-drug on the engineered cysteine at HC position 41 (Kabat); DAR 1.7) VH: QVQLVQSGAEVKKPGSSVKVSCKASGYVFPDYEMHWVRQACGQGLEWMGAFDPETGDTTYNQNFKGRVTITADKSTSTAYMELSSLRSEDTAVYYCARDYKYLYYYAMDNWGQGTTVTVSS VL: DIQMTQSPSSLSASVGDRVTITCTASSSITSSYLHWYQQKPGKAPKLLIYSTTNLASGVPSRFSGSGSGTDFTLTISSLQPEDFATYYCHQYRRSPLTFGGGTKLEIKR
stdout: 400

stdin: Return IC50, in vitro cytotoxicity, MKN-45, -HGF (reported value) for this binder: ADC3a (antibody, human IgG1, kappa, V domains shown, vc-seco-DUBA linker-drug on the engineered cysteine at HC position 41 (Kabat); DAR 1.9) VH: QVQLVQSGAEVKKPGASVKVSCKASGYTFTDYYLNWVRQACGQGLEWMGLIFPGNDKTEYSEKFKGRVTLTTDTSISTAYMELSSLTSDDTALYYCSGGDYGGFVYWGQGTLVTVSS VL: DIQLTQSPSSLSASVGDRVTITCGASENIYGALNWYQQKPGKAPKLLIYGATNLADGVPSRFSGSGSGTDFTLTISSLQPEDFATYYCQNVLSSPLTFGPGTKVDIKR
stdout: 550
